Biological target: T1, cyno IgE c(epsilon)2-c(epsilon)3-c(epsilon)4 Fc fragment with C-terminal (His)10 tag (cynomolgus monkey)
T1 construct: Made in HEK-EBNA cells with the murine Ig kappa leader; Biotinylated in the Alphascreen; also called cyno IgE Fc; cyno IgE-Fc
T1 chain: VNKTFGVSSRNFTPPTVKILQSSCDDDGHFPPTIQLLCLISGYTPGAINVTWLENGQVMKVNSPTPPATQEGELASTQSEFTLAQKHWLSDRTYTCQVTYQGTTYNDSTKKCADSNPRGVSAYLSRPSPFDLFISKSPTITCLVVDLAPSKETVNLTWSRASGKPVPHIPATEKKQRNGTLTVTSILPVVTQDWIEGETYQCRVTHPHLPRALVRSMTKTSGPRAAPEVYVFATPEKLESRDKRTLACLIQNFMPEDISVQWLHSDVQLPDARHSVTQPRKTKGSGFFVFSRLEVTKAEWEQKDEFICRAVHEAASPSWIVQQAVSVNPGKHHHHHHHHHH
Test: Alphascreen, competition with HuFc(epsilon)RI(alpha)Fc for cyno IgE Fc
Quick reference: IC50 of the listed items.
Remember to quote the unit after the number.

The following binders have reported results that may help.
BINDER	IC50
Nanobody 39D11 (VHH, not shown: C-terminal c-myc tag and His6 tag) VHH: EVQLVESGGGLVQPGGSLRLSCAASGFTFGSYDMSWVRQAPGKGPEWVSSIDTGGDITHYADSVKGRFTISRDNANNMLYLQMNSLKPEDTAVYWCATDEDYALGPNEYDYYGQGTQVTVSS	0.119 nM
Nanobody 36G5 (VHH, not shown: C-terminal c-myc tag and His6 tag) VHH: EVQLVESGGGLVQPGGSLRLSCVASGFTFGSYDMSWVRQAPGKRPEWVSAINSGGGSTYYADSVKGRFTISRDNAKNTLYLQMNSLKPEDTAVYYCATDEDYALGPNEYDYYGQGTQVTVSS	0.584 nM
Nanobody 42D7 (VHH, not shown: C-terminal c-myc tag and His6 tag) VHH: EVQLVESGGGLVQPGGPLRLSCAASGFTFGSYDMSWVRQAPGKGPEWVSSIDTGGDITHYADSVKGRFTISRDNANNMLYLQMNSLKPEDTAVYWCATDEDYALGPNEYDYYGQGTQVTVSS	0.127 nM
Nanobody 39D8 (VHH, also called 39D08; not shown: C-terminal c-myc tag and His6 tag) VHH: EVQLVESGGGLVQPGGSLRLSCAASGFTFGSYDMSWVRQAPGKGPEWVSSIDTGGDITHYADSVKGRFTISRDNANNMLYLQMNSLKPGDTAVYWCATDEDYALGPNEYDYYGQGTQVTVSS	0.0742 nM

Below: the item to evaluate.
According to the records, this binder Nanobody 42G5 (VHH, not shown: C-terminal c-myc tag and His6 tag) VHH: EVQLVESGGGLVRPGGSLRLSCAASGFTFGNYDMSWVRQAPGKGPEWVSSIDTGGDITHYADPVKGRFTISRDNAANTLYLQMNSLKPEDTAVYYCATDEDYALGPNEYDYYGQGTQVTVSS displays IC50 of 0.96 nM
